# Tested on: biotinyl-Ile-oxazolone
# Method Notes: self-aminoacylation, catalytic enhancement (BIO) (fold over background); higher = more active; k-Seq, kA / k0A0; sequences stand for … in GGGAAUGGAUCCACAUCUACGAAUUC…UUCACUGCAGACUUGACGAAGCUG
Variants at the floor of the assay were thinned out.
Measured Property: self-aminoacylation
A bare number is all that is needed in reply.

Param item: CUACUUGAAACAAUCUGUCUG [Fam1A.1 aminoacylation ribozyme variant] ; param system: biotinyl-Ile-oxazolone; output self-aminoacylation: 0.655

Param item: CCACAAUUCAAGCAAUGGGUC [Fam1B.1 aminoacylation ribozyme variant] ; param system: biotinyl-Ile-oxazolone; output self-aminoacylation: 1.22

Param item: AUUCCCGUGGUCAUCGAGUGA [Fam2.1 aminoacylation ribozyme variant] ; param system: biotinyl-Ile-oxazolone; output self-aminoacylation: 5.17

Param item: CAACAGUUCAAGCAAUCGGUC [Fam1B.1 aminoacylation ribozyme variant] ; param system: biotinyl-Ile-oxazolone; output self-aminoacylation: 1.22

Param item: AUUGACCUAGGUCAUGGGGUG [Fam2.2 aminoacylation ribozyme variant] ; param system: biotinyl-Ile-oxazolone; output self-aminoacylation: 3.08

Param item: AAGUUUGCUAAUAAUCGAAAG [Fam3.1 aminoacylation ribozyme variant] ; param system: biotinyl-Ile-oxazolone; output self-aminoacylation: 1.02

Param item: GCACACUUCAAGCAACCGGUC [Fam1B.1 aminoacylation ribozyme variant] ; param system: biotinyl-Ile-oxazolone; output self-aminoacylation: 2.31

Param item: CUACUUCAAACACUCUGUCUG [Fam1A.1 aminoacylation ribozyme variant] ; param system: biotinyl-Ile-oxazolone; output self-aminoacylation: 0.797

Taken from the supplement of paper PMC9233669.
